assay: probe aLAP1 signal on lysate-treated microarray – cell lysate, small-molecule microarray, COS7 lysate, primary screen (AID 1124); details: probe aLAP1, fluorescence, higher = more signal;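 also: lysate comes from COS7 cells expressing LAP1 and is applied at 0.3 µg/mL; score merges spot fluorescence near 667 nm with signal-to-noise over triplicate slides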
measure: composite z-score
Give bare numbers.

Consider the following illustrative entries.
* COC(=O)C(CC#Cc1ccc2c(c1)[C@]1(C(=O)N2)[C@H](c2ccccc2OCCO)N2[C@H](c3ccccc3)[C@H](c3ccccc3)OC(=O)[C@H]2[C@@H]1C(N)=O)C(=O)OC | 0.493
* O=C(NCCN1CCOCC1)[C@@H]1c2ccccc2C(=O)N(Cc2cc(C(F)(F)F)cc(C(F)(F)F)c2)[C@H]1c1ccc(CO)cc1 | 0.501
* [N-]=[N+]=Nc1ccccc1C[C@@]1(C(=O)N2CCCCC2)N=C(c2ccc(OCCCO)cc2)O[C@@H]1c1ccccc1 | 0.677
* O=C(NC1CC1)[C@@H]1c2ccccc2C(=O)N(Cc2cc(F)cc(C(F)(F)F)c2)[C@H]1c1ccc(CO)cc1 | 0.747
* O=C1OCC=C[C@H]2OC34C=CCN(CCN5CCOCC5)C(=O)[C@H]3N(CCO)C(=O)[C@@H]4[C@@H]12 (some centres undefined) | -0.194

List composite z-score for every entry below, keeping the order given.
1. COCCOC(=O)N1C(=O)[C@@]2(c3cc(C#CC4(O)CCCCCC4)ccc31)[C@H](c1ccccc1OCCO)N1[C@H](c3ccccc3)[C@H](c3ccccc3)OC(=O)[C@H]1[C@@H]2C(=O)N1CCc2cc(OC)c(OC)cc2C1
2. COc1ccc(CCNC(=O)[C@@]2(C)c3ccccc3C(=O)N(c3ccc(C)cn3)[C@H]2c2ccc(CO)cc2)cc1
3. CCCCC(=C=CC[C@H](O)c1cccc(OCCO)c1)C[C@H](O)c1ccccn1
4. C=CCN1Cc2ccccc2[C@@H]2OC(c3ccc(OCCCO)cc3)=N[C@]2(CCS(=O)(=O)c2ccccc2)C1=O
5. CC(CO)N1C(=O)[C@@H]2C3C(=O)OCCC/C=C\[C@H]3OC23C=CCN(CCN2CCOCC2)C(=O)[C@@H]13 (some centres undefined)
6. OCCCC1=CC(C2CC2)N(Cc2cccc(OC(F)(F)F)c2)CC1 (centres undefined)

Result block:
1. 0.612
2. 0.165
3. -0.165
4. 0.725
5. -0.277
6. 0.833

List composite z-score for every entry below, keeping the order given.
1. CCCC=C(CCC)[C@@H](NC(=O)OCC(C)C)c1ccccc1
2. CCCCCCc1nc(-c2ccc(-c3ccc(Cl)c(Cl)c3)o2)cc2c1[Si](C(C)C)(C(C)C)O[C@H]2c1ccccc1
3. [N-]=[N+]=NCc1ccccc1[C@@H]1OC(c2ccc(OCCCO)cc2)=N[C@]1(CCS(=O)(=O)c1ccccc1)C(N)=O
4. COc1ccc(C#Cc2ccc3c(c2)[C@]2(C(=O)N3)[C@H](c3ccc(O)cc3)N3[C@H](c4ccccc4)[C@H](c4ccccc4)OC(=O)[C@H]3[C@@H]2C(=O)N2CCc3cc(OC)c(OC)cc3C2)cc1

Result block:
1. -0.182
2. -0.418
3. 0.247
4. 0.326

List composite z-score for every entry below, keeping the order given.
1. C=C(CCCC)C(=O)CC[C@H](OC(=O)c1cccnc1)c1ccc(OCCO)cc1
2. CC(=O)Nc1cc(Br)ccc1C(=O)NCc1ccccc1
3. CCC(CC)C(O)C1C=CC2C(=O)N(c3ccccc3)C(=O)C2N1Nc1ccccc1 (centres undefined)
4. CCOC(=O)C1=CC[C@H]2C(=O)N(c3ccccc3)C(=O)[C@@H]12

Result block:
[0.022, -0.458, 0.383, 0.786]
